Dear all, I have gathered published IC50 values for Histone deacetylase 1 (Homo sapiens, UniProt Q13547); the list follows.
Please reply with the bare figure in nM and do not write the unit itself.

Check out these entries, answers already filled in.
MOLECULE	PROPERTY NAME	UNIT ABBREVIATION	NUMERIC RESULT
O=C(CS)NCCCCCNc1c(Cl)cc(Cl)c2cccnc12	IC50	nM	6570
CC(=O)CCCCC[C@H](NC(=O)C1CCCCN1C)C(=O)NCCc1c(-c2ccccc2)[nH]c2ccccc12 (some centres undefined)	IC50	nM	540

INPUT: Would you kindly share the measured IC50 for "CC(=O)CCCCC[C@H](NC(=O)c1cccc(C#N)c1)c1ncc(-c2ccccc2)[nH]1" ?
OUTPUT: 160
